ASSAY_PROCEDURE: NCI Yeast Anticancer Drug Screen. Data for the mlh1 rad18 strain (AID 175)
EXPERIMENTAL_CONDITIONS: S. cerevisiae mlh1 rad18 strain growth inhibition; at 50.0 µM; active compounds read high
Compounds without any hit were thinned out: in the full panel of roughly 79,000, 15% have a hit.
PROPERTY_LABEL: growth inhibition (%)
Numbers only, in %.

These recorded examples may help you get a feel for the data.
COMPOUND: O=S(=O)(c1ccccc1)N1CCCCC1
PROPERTY_LABEL: growth inhibition
ASSAY_RESULT: 25.6
//
COMPOUND: CN(C)NC(=O)Oc1ccc(Cl)cc1
PROPERTY_LABEL: growth inhibition
ASSAY_RESULT: 2.75
//
COMPOUND: CCOC(=O)C(NC(=O)OCc1ccccc1)C(=O)O (configuration not stated)
PROPERTY_LABEL: growth inhibition
ASSAY_RESULT: -14.7
//
COMPOUND: CC(=O)O[C@H]1C[C@H]2CC[C@@]1(C)C2(C)C
PROPERTY_LABEL: growth inhibition
ASSAY_RESULT: 7.95

I have 5 compounds here; please give me growth inhibition for each one.
1. CCOC(=O)c1c(-c2ccccc2)c(-c2ccccc2)cn1C
2. CCCCCCCCCCCCCCCC(=O)N(CCCC)CCCC
3. COc1ccccc1/C=N/NS(=O)(=O)c1ccc(NC(C)=O)cc1
4. N=c1c2ccccc2c2ccccc2n1O
5. O=C(O)c1ccn(-c2cccc(-n3ccc(C(=O)O)n3)n2)n1

## Result
[24.3, 8.85, -4.2, -19.4, -7.1]

I have 3 compounds here; please give me growth inhibition for each one.
1. CCN(CC)C(=O)Nc1cccc(O)c1
2. O=C(O)c1cc(Cl)ccc1-c1ccc(Cl)cc1C(=O)Nc1ccc2c(c1)Cc1cc(Cl)cc(Cl)c1-2
3. Cn1c(=S)sc2ccc(S(=O)(=O)C(F)F)cc21

## Result
1: 5.65; 2: 97.3; 3: 25.1

---

ASSAY_PROCEDURE: NCI Yeast Anticancer Drug Screen. Data for the mec2-1 strain (AID 157)
EXPERIMENTAL_CONDITIONS: S. cerevisiae mec2-1 strain, at 50.0 µM, active compounds read high
Compounds without any hit were thinned out: in the full panel of roughly 79,000, 15% have a hit.
Please respond with reported growth inhibition for every item in the list.
Give bare numbers, in %.

COMPOUND: Cc1cccc(NC(=S)NC2CCCCC2)c1
growth inhibition [%]: 11.7
//
COMPOUND: CCC(CC)CC(=O)OC/C(=N\Nc1ccc([N+](=O)[O-])cc1[N+](=O)[O-])c1ccc(-c2ccccc2)cc1
growth inhibition [%]: 0.15
//
COMPOUND: CN(C)C(=O)C1CCC(=O)N1 (stereo unspecified)
growth inhibition [%]: 10.6
//
COMPOUND: CCC(=O)Nc1ccccc1-c1ccccc1
growth inhibition [%]: 19
//
COMPOUND: Oc1cc(-c2ccc(Cl)cc2)cn2c1nc1ccccc12
growth inhibition [%]: -23.8
//
COMPOUND: COC(=O)c1ccccc1N=NNc1ccc(C)c(Cl)c1
growth inhibition [%]: 0.55
//
COMPOUND: O=C1C=C(Nc2ccc3ccccc3c2[N+](=O)[O-])c2ccccc2C1=O
growth inhibition [%]: 17.4
//
COMPOUND: O=C(C[n+]1csc2ccccc21)c1ccc(I)cc1
growth inhibition [%]: -0.65
//
COMPOUND: O=C(O)CSCc1cc2c(O)c(c1)Cc1cc(CSCC(=O)O)cc(c1O)Cc1cc(CSCC(=O)O)cc(c1O)Cc1cc(CSCC(=O)O)cc(c1O)C2
growth inhibition [%]: -5.6
//
COMPOUND: Nc1nc(-c2cc(-c3ccco3)nc(N)n2)cc(-c2ccco2)n1
growth inhibition [%]: -13.6

## Task Recall and state the measured growth inhibition for Cc1ccc(C2CC(c3ccc([N+](=O)[O-])cc3)=Nc3ccccc3S2)cc1 (stereo unspecified) .
## Result -1.75
